assayedSystem: T1, extracellular tau in the form of paired helical filaments (ePHF tau) (UniProt P10636-8 1-441, limits assumed)
T1 construct: Aggregated, hyperphosphorylated tau preparation; not a single defined polypeptide
T1 sequence (P10636 other isoform, or with tags, fused parts or gaps limits assumed): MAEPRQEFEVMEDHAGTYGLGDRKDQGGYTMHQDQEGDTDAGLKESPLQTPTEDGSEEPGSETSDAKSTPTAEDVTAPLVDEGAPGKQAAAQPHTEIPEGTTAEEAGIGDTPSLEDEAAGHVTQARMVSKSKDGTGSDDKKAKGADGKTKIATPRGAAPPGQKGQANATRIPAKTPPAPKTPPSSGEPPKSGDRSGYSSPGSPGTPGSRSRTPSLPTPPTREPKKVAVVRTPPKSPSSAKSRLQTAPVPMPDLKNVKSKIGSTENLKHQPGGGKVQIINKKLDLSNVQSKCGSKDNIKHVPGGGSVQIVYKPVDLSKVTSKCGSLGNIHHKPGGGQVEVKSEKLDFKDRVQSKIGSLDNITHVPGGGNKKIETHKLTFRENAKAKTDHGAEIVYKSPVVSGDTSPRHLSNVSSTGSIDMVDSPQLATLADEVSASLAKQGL
experimentSummary: ePHF tau ELISA, ePHF coated; antibody at 166.7 ng/ml; anti-mouse-HRP
measurementKind: OD450 (OD450)
Give the number; OD450 is assumed, so skip it.

Recorded OD450, per entry:
| binder | unitSpec | measurement |
| --- | --- | --- |
| anti-tau antibody MC1 expressed from viral genome construct MC1HF.F2AL (TAU_ITR72; SEQ ID NO: 2061) (antibody, V domains shown) VH: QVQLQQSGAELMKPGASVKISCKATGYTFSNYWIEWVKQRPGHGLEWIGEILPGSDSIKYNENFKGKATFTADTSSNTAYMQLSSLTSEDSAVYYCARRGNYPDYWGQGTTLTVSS VL: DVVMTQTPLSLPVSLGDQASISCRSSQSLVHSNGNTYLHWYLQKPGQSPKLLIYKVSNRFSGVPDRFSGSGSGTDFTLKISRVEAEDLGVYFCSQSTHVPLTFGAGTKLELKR | OD450 | 0.7 |
| anti-tau antibody MC1 expressed from viral genome construct MC1LIRESH (TAU_ITR80; SEQ ID NO: 2069) (antibody, mouse IgG1, kappa, V domains shown) VH: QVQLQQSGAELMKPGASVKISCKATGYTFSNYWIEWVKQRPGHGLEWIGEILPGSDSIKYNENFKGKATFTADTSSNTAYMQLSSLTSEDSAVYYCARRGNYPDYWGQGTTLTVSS VL: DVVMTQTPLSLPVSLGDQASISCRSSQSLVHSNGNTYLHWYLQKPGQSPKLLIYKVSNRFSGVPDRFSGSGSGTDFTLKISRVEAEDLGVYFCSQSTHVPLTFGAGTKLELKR | OD450 | 0.6 |
| anti-tau antibody MC1 expressed from viral genome construct MC1LF.P2AH (TAU_ITR83; SEQ ID NO: 2072) (antibody, V domains shown) VH: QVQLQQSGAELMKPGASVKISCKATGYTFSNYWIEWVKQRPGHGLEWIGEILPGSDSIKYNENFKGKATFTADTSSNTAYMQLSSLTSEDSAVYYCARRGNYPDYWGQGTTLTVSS VL: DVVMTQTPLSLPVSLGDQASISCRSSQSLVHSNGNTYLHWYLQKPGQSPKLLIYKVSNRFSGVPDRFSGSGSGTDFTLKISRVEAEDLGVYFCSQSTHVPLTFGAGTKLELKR | OD450 | 0.2 |
| anti-tau antibody MC1 expressed from viral genome construct MC1LF.F2AH (TAU_ITR78; SEQ ID NO: 2067) (antibody, V domains shown) VH: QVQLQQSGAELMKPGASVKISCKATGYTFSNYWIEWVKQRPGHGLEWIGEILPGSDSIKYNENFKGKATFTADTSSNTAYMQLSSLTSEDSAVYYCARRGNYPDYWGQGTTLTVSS VL: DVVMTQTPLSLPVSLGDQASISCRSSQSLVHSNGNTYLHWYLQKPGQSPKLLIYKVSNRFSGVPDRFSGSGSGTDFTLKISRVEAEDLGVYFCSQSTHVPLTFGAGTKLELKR | OD450 | 0.7 |
| anti-tau antibody MC1 expressed from viral genome construct MC1LP2AH (TAU_ITR82; SEQ ID NO: 2071) (antibody, V domains shown) VH: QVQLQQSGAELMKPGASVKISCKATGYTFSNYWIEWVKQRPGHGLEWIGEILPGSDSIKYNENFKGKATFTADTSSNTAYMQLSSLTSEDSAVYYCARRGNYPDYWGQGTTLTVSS VL: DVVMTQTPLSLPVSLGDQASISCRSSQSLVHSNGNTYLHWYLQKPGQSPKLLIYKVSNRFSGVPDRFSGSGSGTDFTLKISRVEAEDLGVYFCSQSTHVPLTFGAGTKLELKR | OD450 | 0.4 |

Specify measured OD450 for anti-tau antibody MC1 expressed from viral genome construct MC1HIRESL (TAU_ITR75; SEQ ID NO: 2064) (antibody, mouse IgG1, kappa, V domains shown) VH: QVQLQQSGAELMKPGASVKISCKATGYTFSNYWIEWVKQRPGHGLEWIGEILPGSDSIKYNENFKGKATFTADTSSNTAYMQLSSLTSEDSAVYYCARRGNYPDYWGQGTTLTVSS VL: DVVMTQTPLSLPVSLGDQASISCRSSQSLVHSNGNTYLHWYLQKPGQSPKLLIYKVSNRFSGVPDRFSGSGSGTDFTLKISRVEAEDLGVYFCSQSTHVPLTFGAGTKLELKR . 0.3

Dear colleague, please send me the reported OD450 for anti-tau antibody MC1 expressed from viral genome construct MC1LF2AH (TAU_ITR79; SEQ ID NO: 2068) (antibody, V domains shown) VH: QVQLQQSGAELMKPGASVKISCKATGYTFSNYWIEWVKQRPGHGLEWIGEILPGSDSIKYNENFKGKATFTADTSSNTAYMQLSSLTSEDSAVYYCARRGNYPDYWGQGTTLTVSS VL: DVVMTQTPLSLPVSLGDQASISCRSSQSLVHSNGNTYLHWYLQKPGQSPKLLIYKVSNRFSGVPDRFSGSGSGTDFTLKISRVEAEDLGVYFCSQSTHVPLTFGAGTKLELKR when you can. 0.7

Return OD450 for the following binder: anti-tau antibody MC1 expressed from viral genome construct MC1HF.P2AL (TAU_ITR73; SEQ ID NO: 2062) (antibody, V domains shown) VH: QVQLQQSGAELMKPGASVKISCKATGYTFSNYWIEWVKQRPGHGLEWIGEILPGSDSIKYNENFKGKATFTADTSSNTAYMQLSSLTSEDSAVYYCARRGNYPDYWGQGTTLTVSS VL: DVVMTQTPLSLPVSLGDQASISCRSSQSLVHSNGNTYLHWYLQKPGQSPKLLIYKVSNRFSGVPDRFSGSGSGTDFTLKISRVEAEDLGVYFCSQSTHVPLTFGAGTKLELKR 0.6

Data credit: patent US20220339270A1
